# test system: Human CARM1 (PRMT4) (Homo sapiens, UniProt Q86X55)
# Construct: Flag-CARM1-His was eluted with 200 ug/ml FLAG peptide in buffer A; made in house; host or cells: HEK 293F cells infected with recombinant baculovirus (pFastBacMam)
# Sequence (Q86X55 1-585 isoform Q86X55-1): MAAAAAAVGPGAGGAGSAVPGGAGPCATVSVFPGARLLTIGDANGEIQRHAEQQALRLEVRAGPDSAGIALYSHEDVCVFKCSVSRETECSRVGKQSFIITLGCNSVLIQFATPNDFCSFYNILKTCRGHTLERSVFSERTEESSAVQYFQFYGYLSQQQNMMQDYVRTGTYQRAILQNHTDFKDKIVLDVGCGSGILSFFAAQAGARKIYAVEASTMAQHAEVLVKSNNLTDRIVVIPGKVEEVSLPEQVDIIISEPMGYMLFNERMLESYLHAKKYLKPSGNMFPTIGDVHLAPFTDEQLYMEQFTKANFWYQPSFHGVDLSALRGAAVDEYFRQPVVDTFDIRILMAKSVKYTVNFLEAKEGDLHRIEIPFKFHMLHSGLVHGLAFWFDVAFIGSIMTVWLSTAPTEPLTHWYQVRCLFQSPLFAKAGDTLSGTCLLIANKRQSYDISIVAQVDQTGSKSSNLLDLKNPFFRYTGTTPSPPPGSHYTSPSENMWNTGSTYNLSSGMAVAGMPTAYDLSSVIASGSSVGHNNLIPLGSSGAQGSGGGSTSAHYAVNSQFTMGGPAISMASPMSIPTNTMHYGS
# protocol text: CARM1 enzyme assay on peptide substrates (3H-SAM Flashplate)
# measurement context: Biochemical assay; CARM1 0.25 nM, 3H-SAM 30 nM, peptide 250 nM; read-out: Biochem IC50
pIC50: −log10 of the molar value.
readout type: pIC50

# count of solved cases: 5
{"columns": ["compound", "test system", "pIC50"],
 "data": [
  ["CNC[C@@H](O)COc1ccc(Cl)c(-c2nc(-c3c(C)noc3C)c(C)c(N3Cc4cnc(N5CC[C@@H]5C)nc4C3)n2)c1 [Example 195]", "Human CARM1 (PRMT4) (Homo sapiens, UniProt Q86X55)", 8.74],
  ["CNC[C@@H](O)COc1ccc(Cl)c(-c2nc(-c3c(C)noc3C)c(C)c(N3CC4(CCC(OC(F)(F)F)CC4)C3)n2)c1 [Example 234]", "Human CARM1 (PRMT4) (Homo sapiens, UniProt Q86X55)", 8.21],
  ["CNC[C@@H](O)COc1ccc(Cl)c(-c2nc(-c3c(C)noc3C)c(C)c(N3Cc4nc(C)oc4C3)n2)c1 [Example 149]", "Human CARM1 (PRMT4) (Homo sapiens, UniProt Q86X55)", 8.51],
  ["CNC[C@@H](O)COc1ccc(F)c(-c2nc(-c3c(C)noc3C)c(C)c(N3Cc4cnn(C5CC5)c4C3)n2)c1 [Example 16]", "Human CARM1 (PRMT4) (Homo sapiens, UniProt Q86X55)", 8.68],
  ["CNC[C@@H](O)COc1ccc(Cl)c(-c2nc(-c3c(C)noc3C)c(C)c(N3Cc4ccnc(C)c4C3)n2)c1 [Example 200]", "Human CARM1 (PRMT4) (Homo sapiens, UniProt Q86X55)", 8.68]
]}

(1) CNC[C@@H](O)COc1ccc(Cl)c(-c2nc(-c3c(C)noc3C)c(C)c(N3Cc4cnn(C(C)C)c4C3)n2)c1 [Example 28]
(2) CNC[C@@H](O)COc1ccc(Cl)c(-c2nc(-c3c(C)noc3C)c(C)c(N3Cc4ccnc(N(C)C)c4C3)n2)c1 [Example 186]
Prompt: Could you tell me which of these two has the smaller pIC50 figure? First: 1 Second: 2 Write the label of whichever entry you select.
Response: 1

----------
# test system: Human CARM1 (PRMT4) (Homo sapiens, UniProt Q86X55)
# Construct: Flag-CARM1-His was eluted with 200 ug/ml FLAG peptide in buffer A
# protocol text: CARM1 enzyme assay on peptide substrates (3H-SAM Flashplate)
# measurement context: Biochemical assay; CARM1 0.25 nM, 3H-SAM 30 nM, peptide 250 nM; read-out: Biochem IC50
readout type: IC50 (nM)

Below, each entry is followed by its recorded IC50 result.
{"columns": ["structure smiles string", "IC50 / nM"],
 "data": [
  ["CNC[C@@H](O)COc1ccc(Cl)c(-c2nc(-c3c(Cl)cnn3C)c(C)c(N3Cc4cccnc4C3)n2)c1", 1.4],
  ["CNC[C@@H](O)COc1ccc(Cl)c(-c2nc(-c3c(C)noc3C)c(C)c(N3CC4(CC(C(=O)N5CCC5)C4)C3)n2)c1", 6.2],
  ["CNC[C@@H](O)COc1ccc(Cl)c(-c2nc(-c3c(C)noc3C)c(C)c(N3Cc4ccc(N5CCC5)nc4C3)n2)c1", 1.5],
  ["CNC[C@@H](O)COc1ccc(Cl)c(-c2nc(-c3c(Br)cnn3C)c(C)c(N3Cc4ccc(N5CCC5)nc4C3)n2)c1", 0.8],
  ["CNC[C@@H](O)COc1ccc(Cl)c(-c2nc(-c3c(Cl)cnn3C)c(C)c(N3CC4=C(CN(C(=O)OC)C4)C3)n2)c1", 2.28]
]}

(P) CNC[C@@H](O)COc1ccc(Cl)c(-c2nc(-c3c(C)noc3C)c(C)c(N3CC4(CC(N5CCC5)C4)C3)n2)c1
(Q) CNC[C@@H](O)COc1ccc(Cl)c(-c2nc(-c3c(C)noc3C)c(C)c(N3CC4=C(CN(C(=O)OC)C4)C3)n2)c1
Prompt: Compare P and Q by numeric IC50 and name the larger one. Identify your selection by its label.
Response: Q
(Q: 3.6 nM, P: 1.26 nM)

(I) CNC[C@@H](O)COc1ccc(Cl)c(-c2nc(-c3c(C)noc3C)c(C)c(N3CC4(CC(S(C)(=O)=O)C4)C3)n2)c1
(II) CNC[C@@H](O)COc1ccc(Cl)c(-c2nc(-c3c(C)c(Cl)nn3C)c(C)c(N3Cc4cnc(N5CCC5)nc4C3)n2)c1
(III) CNC[C@@H](O)COc1ccc(Cl)c(-c2nc(-c3c(C)noc3C)c(C)c(N3Cc4cn(C5CCOCC5)nc4C3)n2)c1
Prompt: Please list the entries, largest IC50 first. Answer format: the labels, ordered as requested.
Response: I, III, II
(I: 11.2 nM, III: 5.1 nM, II: 1.9 nM)

(I) CNC[C@@H](O)COc1ccc(Cl)c(-c2nc(-c3c(C)c(Cl)nn3C)c(C)c(N3Cc4cnc(OCCOC)nc4C3)n2)c1
(II) CNC[C@@H](O)COc1ccc(Cl)c(-c2nc(-c3c(C)noc3C)c(C)c(N3Cc4cnn(C5CCOCC5)c4C3)n2)c1
Prompt: Hi, I'm comparing two records. Which one has the lower IC50, I or II ? Mark your answer with the label of the selected entry.
Response: I
(I: 1.4 nM, II: 4.6 nM)

----------
# test system: Human CARM1 (PRMT4) (Homo sapiens, UniProt Q86X55)
# Construct: Flag-CARM1-His was eluted with 200 ug/ml FLAG peptide in buffer A
# protocol text: CARM1 enzyme assay on peptide substrates (3H-SAM Flashplate)
# measurement context: Biochemical assay; CARM1 0.25 nM, 3H-SAM 30 nM, peptide 250 nM; read-out: Biochem IC50
pIC50: −log10 of the molar value.
readout type: pIC50

{"columns": ["molecule", "numeric result"],
 "data": [
  ["CNC[C@@H](O)COc1ccc(Cl)c(-c2nc(-c3c(C)noc3C)c(C)c(N3CC4(CC(OCCC#N)C4)C3)n2)c1 [Example 287]", 8.35],
  ["CNC[C@@H](O)COc1ccc(Cl)c(-c2nc(-c3c(C)noc3C)c(C)c(N3C[C@@H]4C[C@H]3CN4CC(F)(F)F)n2)c1 [Example 120]", 8.06],
  ["CCc1onc(C)c1-c1nc(-c2cc(OC[C@H](O)CNC)ccc2Cl)nc(N2CC3(CC(OC)C3)C2)c1C [Example 171]", 8.24]
]}

(P) CNC[C@@H](O)COc1ccc(Cl)c(-c2nc(-c3c(C)noc3C)c(C)c(N3Cc4nc(C5CC5)oc4C3)n2)c1 [Example 210]
(Q) CNC[C@@H](O)COc1ccc(Cl)c(-c2nc(-c3c(C)noc3C)c(C)c(N3CCC4(C3)OCCO4)n2)c1 [Example 25]
(R) CNC[C@@H](O)COc1ccc(Cl)c(-c2nc(-c3c(C)noc3C)c(C)c(-n3ncc4c3CN(C(=O)OC)C4)n2)c1 [Example 122]
Prompt: Sort the 3 molecules by pIC50; largest first, smallest last. Thanks in advance for listing the labels in the requested order.
Response: P, Q, R

(P) CNC[C@@H](O)COc1ccc(Cl)c(-c2nc(-c3c(C)noc3C)c(C)c(N3Cc4cnc(N5CCC5C)nc4C3)n2)c1 (some centres unmarked) [Example 167]
(Q) CNC[C@@H](O)COc1ccc(Cl)c(-c2nc(-c3c(C)noc3C)c(C)c(N3Cc4cn(C(CO)CO)nc4C3)n2)c1 [Example 114]
(R) CNC[C@@H](O)COc1ccc(Cl)c(-c2nc(-c3c(C)noc3C)c(C)c(N3Cc4cnc(N5CCC5)nc4C3)n2)c1 [Example 105]
Prompt: Arrange items by their pIC50 values in increasing order. Please list the labels according to the requested order.
Response: Q, R, P
(Q: 8.11, R: 8.49, P: 8.72)

----------
# test system: Human CARM1 (PRMT4) (Homo sapiens, UniProt Q86X55)
# Construct: Flag-CARM1-His was eluted with 200 ug/ml FLAG peptide in buffer A
# protocol text: CARM1 enzyme assay on peptide substrates (3H-SAM Flashplate)
# measurement context: Biochemical assay; CARM1 0.25 nM, 3H-SAM 30 nM, peptide 250 nM; read-out: Biochem IC50
# Source text: S-adenosylmethionine (SAM), S-adenosylhomocysteine (SAH), bicine, Tween20, dimethylsulfoxide (DMSO), bovine skin gelatin (BSG), sodium butyrate and Tris(2-carboxyethyl)phosphine hydrochloride solution (TCEP) were purchased from Sigma-Aldrich at the highest level of purity possible. ^3H-SAM was purchase from American Radiolabeled Chemicals with a specific activity of 80 Ci/mmol. 384-well streptavidin Flashplates were purchased from PerkinElmer. […]
readout type: IC50 (nM)

(1) CNC[C@@H](O)COc1ccc(Cl)c(-c2nc(-c3c(C)noc3C)c(C)c(N3CC4(CCN(CC(F)(F)F)C(=O)O4)C3)n2)c1
(2) CNC[C@@H](O)COc1ccc(Cl)c(-c2nc(-c3c(C)noc3C)c(C)c(N3CC4(CN(CCC(F)(F)F)C4)C3)n2)c1
Prompt: Lab note: check whether 1 or 2 has the lower measured IC50. Lab log: write the label of the selected item as the result.
Response: 2
(2: 4.11 nM, 1: 13.8 nM)
